Data origin, for the record: ChEMBL document CHEMBL5252615

test system: SK-OV-3; test: Antitumor activity against human SK-OV-3 cells assessed as reduction in cell viability incubated for 72 hrs; format: functional, cell-based; settings: SK-OV-3, 72 h
pIC50: −log10 of the molar value.
assay.metric: pIC50

P = O=C1O[C@@]23C[C@@H](C=CC2=C1C(O)c1ccccc1F)N1CCCC[C@H]13 (some centres undefined)
Q = O=C1O[C@@]23C[C@@H](C=CC2=C1C(O)c1cccc(F)c1)N1CCCC[C@H]13 (some centres undefined)
R = O=C1O[C@@]23C[C@@H](C=CC2=C1C(O)c1csc2ccccc12)N1CCCC[C@H]13 (some centres undefined)
Lookup: Please list these in order of increasing pIC50. Thank you! Quick reminder: the answer is the labels in the order asked.
Found: R, P, Q
(R: 4.65, P: 4.99, Q: 5.47)

A = N#Cc1cccc(C(O)C2=C3C=C[C@@H]4C[C@@]3(OC2=O)[C@@H]2CCCCN42)c1 (some centres undefined)
B = CS(=O)(=O)c1ccc(C(O)C2=C3C=C[C@@H]4C[C@@]3(OC2=O)[C@@H]2CCCCN42)cc1 (some centres undefined)
C = Cc1ccccc1C(O)C1=C2C=C[C@@H]3C[C@@]2(OC1=O)[C@@H]1CCCCN31 (some centres undefined)
D = O=C1O[C@@]23C[C@@H](C=CC2=C1C(O)c1cccc([N+](=O)[O-])c1)N1CCCC[C@H]13 (some centres undefined)
Lookup: List by increasing pIC50. Put the labels in the requested order and write them down.
Found: C, B, A, D
(C: 4.70, B: 4.94, A: 5.18, D: 5.51)

I = Cc1ccc(C(O)C2=C3C=C[C@@H]4C[C@@]3(OC2=O)[C@@H]2CCCCN42)cc1 (some centres undefined)
II = O=C1O[C@@]23C[C@@H](C=CC2=C1C(O)c1ccc([N+](=O)[O-])cc1)N1CCCC[C@H]13 (some centres undefined)
III = O=C1O[C@@]23C[C@@H](C=CC2=C1C(O)c1nc2ccccc2s1)N1CCCC[C@H]13 (some centres undefined)
Lookup: Rank the 3 molecules: largest pIC50 first, smallest last. Record the ranking as a list of labels in the requested order.
Found: II, I, III

a = O=C1O[C@@]23CC(C=CC2=C1C(O)c1ccccc1[N+](=O)[O-])N1CCCC[C@H]13 (single isomer, unassigned)
b = N#Cc1ccc(C(O)C2=C3C=C[C@@H]4C[C@@]3(OC2=O)[C@@H]2CCCCN42)cc1 (some centres undefined)
Lookup: Could you tell me which of a and b has the lower pIC50 reading? Output the label that corresponds to your choice.
Found: a
(a: 4.99, b: 5.38)

1 = O=C1O[C@@]23C[C@@H](C=CC2=C1C(O)c1ccc(F)cc1)N1CCCC[C@H]13 (some centres undefined)
2 = O=C1O[C@@]23C[C@@H](C=CC2=C1C(O)c1ccc(-c2ccccc2)cc1)N1CCCC[C@H]13 (some centres undefined)
Lookup: Field: entry with larger pIC50 (options 1 / 2 ). Refer to your chosen item by its label in the answer.
Found: 1
(1: 5.16, 2: 4.83)

a = O=C1O[C@@]23C[C@@H](C=CC2=C1C(O)c1ccc(Cl)cc1)N1CCCC[C@H]13 (some centres undefined)
b = O=C1O[C@@]23C[C@@H](C=CC2=C1C(O)c1ccccc1Cl)N1CCCC[C@H]13 (some centres undefined)
Lookup: For a and b , which recorded pIC50 is lower? The response must carry the label of the picked entry.
Found: a

1 = CC(C)(C)c1ccc(C(O)C2=C3C=C[C@@H]4C[C@@]3(OC2=O)[C@@H]2CCCCN42)cc1 (some centres undefined)
2 = O=C1O[C@@]23C[C@@H](C=CC2=C1C(O)c1ccc([N+](=O)[O-])cc1[N+](=O)[O-])N1CCCC[C@H]13 (some centres undefined)
Lookup: Look at 1 and 2 . Which one has the lower recorded pIC50 number? API: response body contains the label of the selected item.
Found: 1
(1: 4.83, 2: 5.10)
